tested on: SK-MEL-2; test: Cytotoxicity against human SK-MEL-2 cells; type: functional
# GI50 values compiled below

compound: CC1OC(=O)[C@H]2[C@H]1[C@@H](O)C[C@H]1[C@]3(C)CC[C@H]4C(C)(C)CCC[C@]4(C)[C@H]3C[C@@H](O)[C@]21C (some centres undefined)
assayed target: SK-MEL-2
GI50: 25100 nM
--
compound: CC(=O)C1=CC[C@H]2[C@]3(C)CC[C@H]4C(C)(C)CCC[C@]4(C(=O)O)[C@H]3CC(=O)[C@]2(C)[C@H]1C=O
assayed target: SK-MEL-2
GI50: 2400 nM
--
compound: CC(=O)O[C@H]1C[C@H]2[C@@](C)(CC[C@H]3C(C)(C)CCC[C@@]32CO)[C@@H]2CC=C(C(C)=O)[C@H](C=O)[C@@]12C
assayed target: SK-MEL-2
GI50: 1620 nM
--
compound: CC(=O)O[C@@H]1C[C@H]2[C@]3(C)CC[C@H]4C(C)(C)CCC[C@]4(C)[C@H]3C[C@H](O)[C@]2(C)[C@@H](C=O)[C@@H]1C(C)=O
assayed target: SK-MEL-2
GI50: 2240 nM

---

# GI50 values compiled below
system: UACC-257; experiment: Cytotoxicity against human UACC257 cells; format: functional

molecule: CC(=O)O[C@H]1C[C@H]2[C@@](C)(CC[C@H]3C(C)(C)CCC[C@@]32CO)[C@@H]2CC=C(C(C)=O)[C@H](C=O)[C@@]12C
quantity unit: nM
GI50: 1950
--
molecule: CC(=O)O[C@@H]1C[C@H]2[C@]3(C)CC[C@H]4C(C)(C)CCC[C@]4(C)[C@H]3C[C@H](O)[C@]2(C)[C@@H](C=O)[C@@H]1C(C)=O
quantity unit: nM
GI50: 2190
--
molecule: CC1OC(=O)[C@H]2[C@H]1[C@@H](O)C[C@H]1[C@]3(C)CC[C@H]4C(C)(C)CCC[C@]4(C)[C@H]3C[C@@H](O)[C@]21C (some centres undefined)
quantity unit: nM
GI50: 28200
--
molecule: CC(=O)C1=CC[C@H]2[C@]3(C)CC[C@H]4C(C)(C)CCC[C@]4(C(=O)O)[C@H]3CC(=O)[C@]2(C)[C@H]1C=O
quantity unit: nM
GI50: 2400

---

tested on: OVCAR-3; assay: Cytotoxicity against human OVCAR-3 cells; assay type: functional; details: read-out: Log LC50 (the source's name) (converted)
# CC50 values compiled below

molecule: CC(=O)C1=CC[C@H]2[C@]3(C)CC[C@H]4C(C)(C)CCC[C@]4(C(=O)O)[C@H]3CC(=O)[C@]2(C)[C@H]1C=O
CC50 / µM: 3.47
//
molecule: CC(=O)O[C@@H]1C[C@H]2[C@]3(C)CC[C@H]4C(C)(C)CCC[C@]4(C)[C@H]3C[C@H](O)[C@]2(C)[C@@H](C=O)[C@@H]1C(C)=O
CC50 / µM: 5.5
//
molecule: CC1OC(=O)[C@H]2[C@H]1[C@@H](O)C[C@H]1[C@]3(C)CC[C@H]4C(C)(C)CCC[C@]4(C)[C@H]3C[C@@H](O)[C@]21C (some centres undefined)
CC50 / µM: 60.3
//
molecule: CC(=O)O[C@H]1C[C@H]2[C@@](C)(CC[C@H]3C(C)(C)CCC[C@@]32CO)[C@@H]2CC=C(C(C)=O)[C@H](C=O)[C@@]12C
CC50 / µM: 0.676

Origin of values: ChEMBL document CHEMBL1141332
